- RUN DESCRIPTION: Inhibition of antigen presentation in mouse B cells
- Assay type: functional, cell-based
Please provide measured pIC50 for the entries that follow.
One number for each entry, as −log10 of the molar value.

As a guide, the following entries are already answered.
1. CS(=O)(=O)C[C@H](N[C@@H](c1ccc(F)cc1)C(F)(F)F)C(=O)NC1(C#N)CC1 ... 7.36
2. CC(C)C[C@H](N[C@@H](c1ccc(-c2ccc(S(C)(=O)=O)cc2)cc1)C(F)(F)F)C(=O)NCC#N ... 5.32

Let's switch to this molecule now.
Find the recorded pIC50 belonging to "CC(C)C[C@@H](NC(=O)N1CCOCC1)C(=O)N[C@@H](/C=C/S(=O)(=O)c1ccccc1)CCc1ccccc1" and report it.
8.92

----------
Please provide measured bioavailability for the entries that follow.
- RUN DESCRIPTION: Bioavailability in po dosed Sprague-Dawley rat administered in 1:1 inwitor/tween 80 solution
- Type: ADME, organism-based
- CONDITION LABEL: in vivo
Answers are plain numbers, in %.

1. N#CC1(NC(=O)[C@H](CS(=O)(=O)c2ccc(Cl)c(Cl)c2)N[C@@H](c2ccccc2)C(F)(F)F)CC1 ... 30

Let's switch to this compound now.
Find the recorded bioavailability belonging to "N#CC1(NC(=O)[C@H](CS(=O)(=O)c2ccc(Cl)c(Cl)c2)N[C@@H](c2ccc(F)cc2)C(F)(F)F)CC1" and report it.
35

----------
Please provide measured log10 IC50 for the entries that follow.
- ASSAY SYSTEM: Procathepsin L (Mus musculus)
- Sequence (P06797 whole entry): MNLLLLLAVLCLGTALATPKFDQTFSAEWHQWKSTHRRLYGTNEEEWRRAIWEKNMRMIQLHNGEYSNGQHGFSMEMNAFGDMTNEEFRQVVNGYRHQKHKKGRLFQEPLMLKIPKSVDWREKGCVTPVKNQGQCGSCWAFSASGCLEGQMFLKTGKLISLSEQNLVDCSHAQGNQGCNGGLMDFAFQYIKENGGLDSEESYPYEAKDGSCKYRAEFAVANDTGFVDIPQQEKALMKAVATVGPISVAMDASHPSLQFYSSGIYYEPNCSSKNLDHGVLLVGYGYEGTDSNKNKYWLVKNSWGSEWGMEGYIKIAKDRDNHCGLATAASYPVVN
- RUN DESCRIPTION: Inhibition of mouse recombinant cathepsin L
Values are log10 of IC50 in µM.

As a guide, the following entries are already answered.
1. N#CC1(NC(=O)[C@H](CS(=O)(=O)c2ccc(Br)cc2)N[C@@H](c2ccccc2)C(F)(F)F)CC1 ... -1.41
2. CC(C)C[C@H](N[C@@H](c1ccc(-c2ccc(S(C)(=O)=O)cc2)cc1)C(F)(F)F)C(=O)NCC#N ... -0.60

Hi there! I need log10 IC50 for each item below, if you can.
1. N#CC1(NC(=O)[C@H](CS(=O)(=O)CC2CC2)N[C@@H](c2ccc(F)cc2)C(F)(F)F)CC1
2. N#CC1(NC(=O)[C@H](CS(=O)(=O)Cc2cccc(F)c2F)N[C@@H](c2ccc(F)cc2)C(F)(F)F)CC1
3. CS(=O)(=O)C[C@H](N[C@@H](c1ccc(Br)cc1)C(F)(F)F)C(=O)NC1(C#N)CC1
4. N#CC1(NC(=O)[C@H](CS(=O)(=O)c2ccc(Cl)c(Cl)c2)N[C@@H](c2ccccc2)C(F)(F)F)CC1
5. N#CC1(NC(=O)[C@H](CS(=O)(=O)c2cccc(Br)c2)N[C@@H](c2ccccc2)C(F)(F)F)CC1
6. CS(=O)(=O)C[C@H](N[C@@H](c1ccc(F)cc1)C(F)(F)F)C(=O)NC1(C#N)CC1

[-0.48, -0.18, 0.35, -1.23, -1.05, 0.48]

----------
- Species: Mus musculus
- RUN DESCRIPTION: Drug level in C57BL/6 mouse blood at 0.25 w/w %
- Assay type: ADME, organism-based
- CONDITION LABEL: in vivo, read-out: Drug uptake
ASSAY ENDPOINT: concentration (µM)
Numbers only, in µM.

Find the recorded concentration belonging to C[S+]([O-])C[C@H](N[C@@H](c1ccc(F)cc1)C(F)(F)F)C(=O)NC1(C#N)CC1 (stereo partly specified) and report it.
16

----------
- ASSAY SYSTEM: Cathepsin K (Mus musculus)
- Sequence (P55097 whole entry): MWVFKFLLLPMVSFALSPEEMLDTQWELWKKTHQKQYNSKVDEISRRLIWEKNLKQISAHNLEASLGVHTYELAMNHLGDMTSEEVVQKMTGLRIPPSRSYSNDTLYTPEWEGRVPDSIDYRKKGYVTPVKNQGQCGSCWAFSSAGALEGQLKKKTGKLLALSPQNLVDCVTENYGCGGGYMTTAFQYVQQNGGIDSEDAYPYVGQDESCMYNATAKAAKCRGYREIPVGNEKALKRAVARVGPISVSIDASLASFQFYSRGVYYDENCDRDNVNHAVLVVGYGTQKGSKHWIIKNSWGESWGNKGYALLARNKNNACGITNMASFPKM
- RUN DESCRIPTION: Inhibition of mouse recombinant cathepsin K
Please provide measured IC50 for the entries that follow.
Numbers only, in µM.

As a guide, the following entries are already answered.
1) N#CC1(NC(=O)[C@H](CS(=O)(=O)c2ccc(Cl)c(Cl)c2)N[C@@H](c2ccccc2)C(F)(F)F)CC1 ... 1.46
2) CC(C)C[C@@H](NC(=O)N1CCOCC1)C(=O)N[C@@H](/C=C/S(=O)(=O)c1ccccc1)CCc1ccccc1 ... 0.388

Let's switch to this molecule now.
Find the recorded IC50 belonging to "CS(=O)(=O)C[C@H](N[C@@H](c1ccc(F)cc1)C(F)(F)F)C(=O)NC1(C#N)CC1" and report it.
1.65

----------
- ASSAY SYSTEM: Cathepsin S (Mus musculus, UniProt O70370)
- Sequence (O70370 whole entry): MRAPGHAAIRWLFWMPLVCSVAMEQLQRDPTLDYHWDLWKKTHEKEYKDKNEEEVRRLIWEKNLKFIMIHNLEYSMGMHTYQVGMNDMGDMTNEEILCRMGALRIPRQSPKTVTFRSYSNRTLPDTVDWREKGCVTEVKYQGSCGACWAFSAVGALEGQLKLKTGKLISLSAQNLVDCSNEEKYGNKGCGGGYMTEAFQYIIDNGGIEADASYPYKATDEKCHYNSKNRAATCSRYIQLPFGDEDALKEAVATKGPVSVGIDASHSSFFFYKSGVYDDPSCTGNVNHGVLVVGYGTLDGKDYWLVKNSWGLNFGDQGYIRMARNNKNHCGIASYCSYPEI
- RUN DESCRIPTION: Inhibition of mouse recombinant cathepsin S
Please provide measured log10 of IC50 for the entries that follow.
Values are log10 of IC50 in nM.

As a guide, the following entries are already answered.
1) C[S+]([O-])C[C@H](N[C@@H](c1ccc(F)cc1)C(F)(F)F)C(=O)NC1(C#N)CC1 (stereo not given in full) ... 1.98
2) N#CC1(NC(=O)[C@H](CS(=O)(=O)CC2CC2)N[C@@H](c2ccc(F)cc2)C(F)(F)F)CC1 ... -0.05
3) CS(=O)(=O)C[C@H](N[C@@H](c1ccc(F)cc1)C(F)(F)F)C(=O)NC1(C#N)CC1 ... -0.22
4) N#CC1(NC(=O)[C@H](CS(=O)(=O)c2ccc(Br)cc2)N[C@@H](c2ccccc2)C(F)(F)F)CC1 ... -0.70

Hi there! I need log10 of IC50 for each item below, if you can.
1. N#CC1(NC(=O)[C@H](CS(=O)(=O)Cc2cccc(F)c2F)N[C@@H](c2ccc(F)cc2)C(F)(F)F)CC1
2. CC(C)C[C@H](N[C@@H](c1ccc(-c2ccc(S(C)(=O)=O)cc2)cc1)C(F)(F)F)C(=O)NCC#N
3. CS(=O)(=O)C[C@H](N[C@@H](c1ccc(Br)cc1)C(F)(F)F)C(=O)NC1(C#N)CC1
4. CC(C)C[C@@H](NC(=O)N1CCOCC1)C(=O)N[C@@H](/C=C/S(=O)(=O)c1ccccc1)CCc1ccccc1

-0.10
2.40
0.20
-0.30

----------
- RUN DESCRIPTION: Half life in Sprague-Dawley rat
- Assay type: ADME, organism-based
- CONDITION LABEL: in vivo
ASSAY ENDPOINT: half-life (h)
Numbers only, in h.

As a guide, the following entries are already answered.
1. N#CC1(NC(=O)[C@H](CS(=O)(=O)CC2CC2)N[C@@H](c2ccc(F)cc2)C(F)(F)F)CC1 ... 3.8
2. CC(C)CS(=O)(=O)C[C@H](N[C@@H](c1ccc(F)cc1)C(F)(F)F)C(=O)NC1(C#N)CC1 ... 1.6
3. N#CC1(NC(=O)[C@H](CS(=O)(=O)c2ccc(Cl)c(Cl)c2)N[C@@H](c2ccccc2)C(F)(F)F)CC1 ... 1.7
4. N#CC1(NC(=O)[C@H](CS(=O)(=O)Cc2cccc(F)c2F)N[C@@H](c2ccc(F)cc2)C(F)(F)F)CC1 ... 1.2
5. CS(=O)(=O)C[C@H](N[C@@H](c1ccc(Br)cc1)C(F)(F)F)C(=O)NC1(C#N)CC1 ... 11

Let's switch to this compound now.
Find the recorded half-life belonging to "CS(=O)(=O)C[C@H](N[C@@H](c1ccc(F)cc1)C(F)(F)F)C(=O)NC1(C#N)CC1" and report it.
5.2

----------
- Species on record: Mus musculus
- RUN DESCRIPTION: Drug level in C57BL/6 mouse blood at 0.05 w/w %
- Format: ADME, organism-based
- CONDITION LABEL: in vivo, read-out: Drug uptake
ASSAY ENDPOINT: concentration (µM)
Numbers only, in µM.

Find the recorded concentration belonging to C[S+]([O-])C[C@H](N[C@@H](c1ccc(F)cc1)C(F)(F)F)C(=O)NC1(C#N)CC1 (stereo partly specified) and report it.
6

----------
- ASSAY SYSTEM: UniProt:P25774
- Sequence (P25774 whole entry): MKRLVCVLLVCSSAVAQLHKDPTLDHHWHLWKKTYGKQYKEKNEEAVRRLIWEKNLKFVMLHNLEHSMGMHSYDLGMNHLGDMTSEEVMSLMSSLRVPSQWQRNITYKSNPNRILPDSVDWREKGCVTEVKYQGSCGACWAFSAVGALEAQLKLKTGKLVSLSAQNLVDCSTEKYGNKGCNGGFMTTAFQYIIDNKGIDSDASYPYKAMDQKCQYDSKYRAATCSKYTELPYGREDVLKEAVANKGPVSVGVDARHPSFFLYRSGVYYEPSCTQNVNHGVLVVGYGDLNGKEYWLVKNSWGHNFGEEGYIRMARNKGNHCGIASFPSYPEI
ASSAY ENDPOINT: IC50 (nM)
Give bare numbers, in nM.

1. N#CC1(NC(=O)[C@H](CS(=O)(=O)Cc2ccc(F)cc2)N[C@@H](c2ccccc2)C(F)(F)F)CC1 ... 0.5
2. CS(=O)(=O)C[C@H](N[C@@H](c1cccc(F)c1)C(F)(F)F)C(=O)NC1(C#N)CC1 ... 6.4
3. CS(=O)(=O)C[C@H](N[C@@H](c1ccccc1)C(F)(F)F)C(=O)NC1(C#N)CC1 ... 2.5
4. N#CC1(NC(=O)[C@H](CS(=O)(=O)Cc2c(F)cccc2F)N[C@@H](c2ccc(F)cc2)C(F)(F)F)CC1 ... 0.7
5. N#CC1(NC(=O)[C@H](CS(=O)(=O)Cc2cccc(F)c2F)N[C@@H](c2ccc(F)cc2)C(F)(F)F)CC1 ... 0.3

Hi there! I need IC50 for each item below, if you can.
1. CSC[C@H](N[C@@H](c1ccc(Br)cc1)C(F)(F)F)C(=O)NC1(C#N)CC1
2. N#CC1(NC(=O)[C@H](CS(=O)(=O)c2nccs2)N[C@@H](c2ccccc2)C(F)(F)F)CC1

[80, 5]
